The measurements presented in this section are drawn from patent US6642392B1.

Tested on: Pyricularia oryzae
Type: in vivo
CONDITION NOTES: rice seedlings sprayed to run-off, inoculated the following day; rating relative to controls; unmarked compounds (standard test rate)
Field: Test C disease control rating (100 = 100% disease control, 0 = no disease control). Provide a value for each of the compounds that follow.
Answers are plain numbers, in %.

// known answers, use as guide
COMPOUND	READING
CCC1(C(=O)NC(C)COc2cc(F)c(F)cc2Br)C(C)C1(Cl)Cl (centres unmarked) [compound 235]	91
CC(C=Cc1ccccc1F)NC(=O)C(C#N)C(C)(C)C (mixture of isomers) [compound 308]	100

For every record below, what is its Test C disease control rating (100 = 100% disease control, 0 = no disease control)?
1. CC(COc1c(F)ccc(F)c1C#N)NC(=O)C(C#N)C(C)C(C)(C)C (mixture of isomers) [compound 279]
2. CCC1(C(=O)NC(C)C=Cc2ccc(Cl)cc2Cl)C(C)C1(Cl)Cl (centres unmarked) [compound 266]

1: 0; 2: 91

* * *

Test system: Eiysiphe graminis f. sp. tritici
ASSAY NAME: Test A: wheat powdery mildew, preventive spray on wheat seedlings
Format: in vivo
CONDITION NOTES: wheat seedlings sprayed to run-off, inoculated the following day; rating relative to controls; unmarked compounds (standard test rate)
Exercise: for every item that follows, state its recorded Test A disease control rating (100 = 100% disease control, 0 = no disease control).
Give bare numbers, in %.

Past entries and their recorded results:
COMPOUND	READING
C=CCc1cccc(C#N)c1OCC(C)NC(=O)C1(CC)C(C)C1(Cl)Cl (mixture of isomers)	0
CC(C)(C)C(C#N)C(=O)NC/C=C/c1cccc(Br)c1 (racemic)	76
CC(COc1cc(OC(F)F)ccc1C#N)NC(=O)C(C#N)C(C)C(C)(C)C (mixture of isomers)	0
CCC1(C(=O)NC(C)COc2c(F)cccc2C#N)C(C)C1(Cl)Cl (mixture of isomers)	0
CCC1(C(=O)NC(C)C=Cc2cc(F)ccc2F)C(C)C1(Cl)Cl (centres unmarked) [267b]	92
CCC1(C(=O)NC(C)COc2c(F)c(F)cc(F)c2F)C(C)C1(Cl)Cl (centres unmarked)	0

// each compound listed below needs its Test A disease control rating (100 = 100% disease control, 0 = no disease control)
1. CC(COc1ccccc1)NC(=O)C1(C)CC1(Cl)Cl (mixture of isomers)
2. CCC1(C(=O)NC(C)COc2c(F)ccc(F)c2C#N)C(C)C1(Cl)Cl (mixture of isomers)

1: 84; 2: 74

* * *

System: Pyricularia oryzae
Type: in vivo
CONDITION NOTES: rice seedlings sprayed to run-off, inoculated the following day; rating relative to controls; unmarked compounds (standard test rate)
OBSERVABLE: Test C disease control rating (100 = 100% disease control, 0 = no disease control) (%)
One number for each entry, in %.

See these solved cases before continuing.
MOLECULE	VALUE UNIT	READING
CC(COc1ccccc1)NC(=O)C1(C)C(C)C1(Cl)Cl (mixture of isomers)	%	53
C=CCc1ccccc1OCC(C)NC(=O)C1(C)CC1(Cl)Cl (mixture of isomers)	%	72
CC(COc1cc(F)ccc1OC(F)(F)C(F)F)NC(=O)C(C#N)C(C)(C=CF)CF (mixture of isomers)	%	100
CC(C=Cc1cc(F)ccc1F)NC(=O)C(C#N)C(C)(C)C (single isomer, unassigned) [229b]	%	100

Could you now consider this next molecule?
Fill in Test C disease control rating (100 = 100% disease control, 0 = no disease control) for record CC(C=Cc1ccccc1C#N)NC(=O)C(C#N)C(C)(C)C (mixture of isomers)
94
